This collection of values is drawn from ChEMBL document CHEMBL3045675.

// values below are reported logP
Measurement description: Octanol-water partition coefficient, log KOW of the compound
Assay type: physicochemical
Measurement context: read-out: log KOW

Solved entries:
[
  {
    "Smiles code": "N[C@@H](CCCCNC(=O)COc1ccc(Cl)cc1Cl)C(=O)O",
    "Result": -0.49
  },
  {
    "Smiles code": "Cc1cc(Cl)ccc1OCC(=O)NCCCC[C@H](N)C(=O)O",
    "Result": -0.59
  },
  {
    "Smiles code": "N[C@@H](CCCCNC(=O)CCCOc1ccc(Cl)cc1Cl)C(=O)O",
    "Result": -0.49
  }
]

Here is another compound to look at.
## Input Field request: logP | item: Nc1ccc(OCC(=O)NCCCC[C@H](N)C(=O)O)cc1
## Output -3
